B1: STK38L (parent)
chain: RQLAYSTVGTPDYIAPEVFMQTGY

Variants of: B1
assayName: protein stability index of a GFP-peptide fusion (GPS, HEK-293T) (PSI 1-6); higher = more stable;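 also: lentivirally expressed fusions sorted by FACS into six bins by GFP to DsRed ratio, PSI derived from sequencing read proportions per bin multiplied by bin number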
conditionParameters: c terminus: a fixed tail appended
observable: protein stability index
No unit in the answer, only the number.

[[record]]
variantstring = "Y13T"
endpointvalue = 2.92

[[record]]
variantstring = "T22N"
endpointvalue = 2.98

[[record]]
variantstring = "A4V"
endpointvalue = 2.02


We next turn to a different variant, shown below.
Field request: protein stability index | item: Y13K
2.92
